Target: Adenosine receptor A2b (Homo sapiens, UniProt P29275)
Experiment: Antagonist activity at human adenosine A2B receptor expressed in mouse NIH/3T3 cells assessed as inhibition of NECA-induced IL-6 release incubated for 15 mins followed by agonist treatment for 15 mins by HTRF assay
Measured IC50 of individual entries
Property label: IC50 (nM)

- Smiles input: "CCCn1c(=O)c2[nH]c(-c3cnn(CC#Cc4cccc(OC(F)(F)F)c4)c3)nc2n(CCC)c1=O"
  Scale unit: "nM"
  Val: 90
- Smiles input: "CCCn1c(=O)c2[nH]c(-c3cnn(CC#Cc4cccc(OC(F)(F)F)c4)c3)nc2n(CC)c1=O"
  Scale unit: "nM"
  Val: 107
- Smiles input: "CCCn1c(=O)c2[nH]c(-c3cnn(CC#Cc4cccc(C(=O)O)c4)c3)nc2n(CCC)c1=O"
  Scale unit: "nM"
  Val: 2000

----------
Test system: P-gp
Experiment: Substrate activity at P-gp (unknown origin) assessed as ratio of permeability from basolateral to apical side over apical to basolateral side
Format: ADME
Settings: human, not told

- Smiles input: "CCCn1c(=O)c2[nH]c(-c3cnn(CC#Cc4cccc(C(=O)O)c4)c3)nc2n(CCC)c1=O"
  Experimental system: "P-gp"
  efflux ratio: 12

----------
Molecular target: Adenosine receptor A2b (Homo sapiens, UniProt P29275)
Sequence (P29275 whole entry): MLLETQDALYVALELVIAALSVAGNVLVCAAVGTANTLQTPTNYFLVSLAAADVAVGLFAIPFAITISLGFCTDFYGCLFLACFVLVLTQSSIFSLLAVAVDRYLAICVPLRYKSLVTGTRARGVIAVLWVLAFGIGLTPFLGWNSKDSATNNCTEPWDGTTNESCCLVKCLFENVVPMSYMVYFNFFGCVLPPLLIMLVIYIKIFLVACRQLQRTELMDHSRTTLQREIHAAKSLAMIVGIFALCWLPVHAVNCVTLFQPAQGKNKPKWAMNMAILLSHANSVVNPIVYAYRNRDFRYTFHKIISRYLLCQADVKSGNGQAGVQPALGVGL
Assay: Displacement of [3H]-MRS-1754 from human adenosine A2B receptor expressed in HEK293 cell membranes after 90 mins
Details: read-out: Ki
pKi: −log10 of the molar value.
Cut-off 8 on pKi, inclusive. At or above means met; below means not met.

- Smiles input: "CCCn1c(=O)c2[nH]c(-c3cnn(CC#Cc4cccc(C(=O)O)c4)c3)nc2n(CCC)c1=O"
  Group: "met"
- Smiles input: "CCCn1c(=O)[nH]c2nc(-c3cnn(CC#Cc4cccc(F)c4)c3)[nH]c2c1=O"
  Group: "met"
- Smiles input: "CCCn1c(=O)c2[nH]c(-c3cc(OCC#Cc4cccc(C(F)(F)F)c4)no3)nc2n(CCC)c1=O"
  Group: "not met"
- Smiles input: "CCCn1c(=O)[nH]c2nc(-c3cnn(CC#Cc4ccc(OC(F)(F)F)cc4)c3)[nH]c2c1=O"
  Group: "met"
- Smiles input: "CCCn1c(=O)c2[nH]c(-c3cc(OCC#Cc4cccc(F)c4)no3)nc2n(CCC)c1=O"
  Group: "not met"
- Smiles input: "CCCn1c(=O)[nH]c2nc(-c3cnn(CC#Cc4cccc(C(F)(F)F)c4)c3)[nH]c2c1=O"
  Group: "met"
- Smiles input: "CCCn1c(=O)c2[nH]c(-c3cnn(CC#CC4(O)CCCC4)c3)nc2n(CCC)c1=O"
  Group: "not met"
- Smiles input: "CCCn1c(=O)c2[nH]c(-c3cnn(CC#Cc4ccc(C(=O)OCC)cc4)c3)nc2n(CCC)c1=O"
  Group: "met"
- Smiles input: "CCCn1c(=O)c2[nH]c(-c3cnn(CC#Cc4cccc(OC(F)(F)F)c4)c3)nc2n(CCC)c1=O"
  Group: "met"
- Smiles input: "CCCn1c(=O)c2[nH]c(-c3cnn(CC#CCN(CC)CC)c3)nc2n(CCC)c1=O"
  Group: "not met"
- Smiles input: "CCCn1c(=O)c2[nH]c(-c3cnn(CC#Cc4ccc(C(=O)O)cc4)c3)nc2n(CCC)c1=O"
  Group: "not met"
- Smiles input: "CCCn1c(=O)[nH]c2nc(-c3cnn(CC#Cc4cccc(OC(F)(F)F)c4)c3)[nH]c2c1=O"
  Group: "met"
- Smiles input: "CCCn1c(=O)c2[nH]c(-c3cnn(CC#CCN4CCCCC4)c3)nc2n(CCC)c1=O"
  Group: "not met"
- Smiles input: "CCCn1c(=O)c2[nH]c(-c3cc(OCC#Cc4cccc(OC(F)(F)F)c4)no3)nc2n(CCC)c1=O"
  Group: "not met"
- Smiles input: "CCCn1c(=O)[nH]c2nc(-c3cnn(CC#Cc4ccc(C(F)(F)F)cc4)c3)[nH]c2c1=O"
  Group: "met"
- Smiles input: "CCCn1c(=O)c2[nH]c(-c3cnn(CC#Cc4ccc(C(=O)O)cc4)c3)nc2n(CC)c1=O"
  Group: "not met"
- Smiles input: "CCCn1c(=O)c2[nH]c(-c3cnn(CC#CCN4CCOCC4)c3)nc2n(CCC)c1=O"
  Group: "not met"
- Smiles input: "C#CCn1cc(-c2nc3c([nH]2)c(=O)n(CCC)c(=O)n3CCC)cn1"
  Group: "not met"
- Smiles input: "CCCn1c(=O)c2[nH]c(-c3cnn(CC#Cc4cccc(C)c4)c3)nc2n(CCC)c1=O"
  Group: "met"
- Smiles input: "CCCn1c(=O)c2[nH]c(-c3ccc(OCC#Cc4ccc(OC(F)(F)F)cc4)cc3)nc2n(CCC)c1=O"
  Group: "not met"
- Smiles input: "CCCn1c(=O)[nH]c2nc(-c3cnn(CC#Cc4cccc(C(=O)O)c4)c3)[nH]c2c1=O"
  Group: "not met"
- Smiles input: "CCCn1c(=O)c2[nH]c(-c3cnn(CC#Cc4ccc(OC(F)(F)F)cc4)c3)nc2n(CCC)c1=O"
  Group: "met"
- Smiles input: "CCCn1c(=O)c2[nH]c(-c3cnn(CC#Cc4ccc(C(F)(F)F)cc4)c3)nc2n(CCC)c1=O"
  Group: "met"
- Smiles input: "CC#CCn1cc(-c2nc3c([nH]2)c(=O)n(CCC)c(=O)n3CCC)cn1"
  Group: "not met"
- Smiles input: "CCCn1c(=O)c2[nH]c(-c3cnn(CC#Cc4cccc(C(=O)O)c4)c3)nc2n(CC)c1=O"
  Group: "not met"
